System: Ba/F3-CD74-ROS1 D2033N cells
test protocol: CellTiter-Glo cell viability assay
Assay type: cell-based, murine
experimental parameters: Mus musculus, 72 h; read-out: IC50
property label: IC50 (nM)

P: Cc1cc(Nc2ncc(Cl)c(Nc3ccccc3S(=O)(=O)C(C)C)n2)c(OC(C)C)cc1C1CCNCC1
Q: CCc1cc2c(cc1N1CCC(N3CCOCC3)CC1)C(C)(C)c1[nH]c3cc(C#N)ccc3c1C2=O
[Q] Which gives the smaller IC50 number: P or Q ? Pick one; state its label.
[A] P
(P: 56.3 nM, Q: 1170 nM)

---

target or test system: UniProt:Q16832
Sequence (Q16832 22-855): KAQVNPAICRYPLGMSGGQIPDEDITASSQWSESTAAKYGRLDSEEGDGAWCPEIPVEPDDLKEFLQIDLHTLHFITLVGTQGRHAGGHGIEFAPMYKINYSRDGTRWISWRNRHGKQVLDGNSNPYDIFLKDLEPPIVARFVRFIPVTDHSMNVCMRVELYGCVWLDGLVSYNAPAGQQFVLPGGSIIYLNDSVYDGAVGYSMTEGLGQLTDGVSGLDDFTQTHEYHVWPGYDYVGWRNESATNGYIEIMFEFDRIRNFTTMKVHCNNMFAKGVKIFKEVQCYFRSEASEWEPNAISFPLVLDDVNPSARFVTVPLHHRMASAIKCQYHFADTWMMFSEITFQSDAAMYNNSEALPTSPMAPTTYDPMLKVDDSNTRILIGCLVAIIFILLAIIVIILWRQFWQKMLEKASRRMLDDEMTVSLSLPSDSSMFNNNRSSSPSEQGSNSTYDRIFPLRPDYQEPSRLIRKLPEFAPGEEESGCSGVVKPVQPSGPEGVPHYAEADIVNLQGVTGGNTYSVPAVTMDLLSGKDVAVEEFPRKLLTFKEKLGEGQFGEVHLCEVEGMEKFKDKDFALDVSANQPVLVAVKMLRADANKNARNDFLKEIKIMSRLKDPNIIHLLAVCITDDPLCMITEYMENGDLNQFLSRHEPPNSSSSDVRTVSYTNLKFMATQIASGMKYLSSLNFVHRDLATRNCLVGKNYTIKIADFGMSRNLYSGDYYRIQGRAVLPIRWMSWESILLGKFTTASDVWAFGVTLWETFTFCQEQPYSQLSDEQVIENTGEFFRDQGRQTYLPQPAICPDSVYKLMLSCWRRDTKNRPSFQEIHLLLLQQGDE
property label: pIC50
Note: pIC50 values are expressed as the negative base-10 logarithm of concentration in M.

[Q] Kindly indicate its recorded pIC50. Item: C[C@@H](N)COc1ccc(-c2cnc3ccc(N[C@H](C)c4cccc(F)c4)nn23)cc1.O=C(O)CCCCC(=O)O [DS-6051b]
[A] 6.52
